B1: EHEE_rd2_1257 (parent)
chain: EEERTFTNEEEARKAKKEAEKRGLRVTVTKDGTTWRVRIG

Variants of: B1
Method: folding stability dG (cDNA display proteolysis); higher = more stable
Reported conditions: PBS, room temperature
Measurement type: folding stability dG

In: Which folding stability dG value is on record for R13N ?
Out: 2.35 kcal/mol

In: Another variant: K16T
Out: 1.89 kcal/mol

In: Another variant: E3F
Out: 2 kcal/mol

In: Another variant: G40V
Out: 2.73 kcal/mol

In: Another variant: D31A
Out: 1.41 kcal/mol

In: Another variant: E1L
Out: 2.33 kcal/mol

In: Another variant: G23C
Out: 1.58 kcal/mol

In: Another variant: I39A
Out: 0.675 kcal/mol

In: Another variant: T27V
Out: 1.88 kcal/mol

In: Another variant: E2K
Out: 1.73 kcal/mol

In: Another variant: T7D
Out: 2.25 kcal/mol

In: Another variant: T27S
Out: 1.77 kcal/mol

In: Another variant: T5S
Out: 1.69 kcal/mol

In: Another variant: E9F
Out: 2.37 kcal/mol

In: Another variant: K17W
Out: 2.39 kcal/mol

In: Another variant: T33W
Out: 1.65 kcal/mol

In: Another variant: D31I
Out: 2.22 kcal/mol

In: Another variant: E9R
Out: 1.77 kcal/mol

In: Another variant: T33R
Out: 1.57 kcal/mol

In: Another variant: E1I
Out: 2.74 kcal/mol

In: Another variant: R36K
Out: 2.08 kcal/mol

In: Another variant: V26S
Out: 0.809 kcal/mol
